target: T1, gH/gL co-expressed from MVA in BHK-21 cells (human cytomegalovirus, UniProt P12824 24-743; P16832 31-278); test: intracellular FC, MVA-infected BHK-21
T1 construct: whole, on cells

# binder, binding result
rows = [
    ("21F6 (antibody, V domains shown, also called NAb 21F6) VH: QIQLVQSGPELKKPGETVKISCKASGYTFTSYGMNWVKQAPGKGLKWMGWINTYTGEPTYADDFKGRFAFSLETSASTAYLQINNLKNEDTATYFCAREHYYGINPLLGCWGQGTTLTVSS VL: DIQMTQTTSSLSASLGDRVTISCSASQGISNYLNWYQQKPDGTVKLLIYDTSSLHSGVPSRFSGSGSGTDYSLTISNLEPEDIATYYCQQYSKLPYTFGGGTKLEIK", "no binding"),
    ("54E11 (antibody, V domains shown, also called NAb 54E11) VH: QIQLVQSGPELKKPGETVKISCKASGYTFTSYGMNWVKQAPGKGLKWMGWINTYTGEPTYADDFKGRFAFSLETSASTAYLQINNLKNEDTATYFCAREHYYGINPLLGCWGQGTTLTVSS VL: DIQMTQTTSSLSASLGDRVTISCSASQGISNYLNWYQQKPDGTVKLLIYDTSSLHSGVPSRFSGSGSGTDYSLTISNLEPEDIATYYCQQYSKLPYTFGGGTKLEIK", "no binding"),
    ("13B5 (antibody, V domains shown, also called NAb 13B5; 1365) VH: QVTLKESGPGILKPSQTLSLTCSFSGFSLTTSGLGVGWIRQPSGKGLEWLAHIWWDDDKYFNPSLRNQLTISKDTSRNQVFLEITSVTTADTATYYCVRSLYDYDEGYYFDSWGQGTTLTVSS VL: EIVMIQSPATLSVNPGDRVSLSCRASQSISDYLHWYQQKSHESPRLLIKYASQSISGIPSRFSGSGSGSDFTLSINSVEPEDVGVYYCQNGHTFPPTFGGGTKLEIK", "no binding"),
    ("12E2 (antibody, V domains shown, also called NAb 12E2) VH: EVKLVESGGGLVQPGGSLKLSCATSGFTFSDYYMFWVRQTPEKKLEWVAYISNGGGSTYYPDTVKGRFTISRDNDKNTLYLQMSRLKSDDTALYYCVRPKRDFQYLYAMDYWGQGTSVTVSS VL: DIVLTQSPASLAVSLGQRATISCRASKSVSTSGYSYMHWYQQKPGQSPKLLIYLASNLESGVPARFSGSGSGTDFTLNIHPVEDEDAATYYCQHSRELPWTFGGGTKLEIK", "no binding"),
    ("1B2 (antibody, V domains shown, also called NAb 1B2) VH: EVQLVESGGVLVKPGGSLKLSCAASGFTFSDYYMYWVRQTPEKRLEWVATISDDGNYTNYPDSVKGRFTISRDNAKNNLYLQMSSLKSEDTAMYYCARGWLLPVFAYWGQGTLVTVSA VL: DIVLTQSPATLSVTPGDSVSLSCRASQSIGNNLHWYQQKSHESPRLLIKYTSQSISGIPSRFSGSGSGTDFTLNINSVETEDFGVYFCQQSNRWPWTFGGGTKLEIK", "no binding"),
]
